# System: OVCAR-8 ovarian
# assayRemarks: NCI tumour cell line growth inhibition, 48 h; in the data active = GI50 below about 0.43 µM; inactive = the rest
Your answer must be one of the following: True = active, False = inactive

Observe how each entry below is paired with its result.
> print(dat)
                                   compound  group
1  CSc1ccc(C2=NN(C(C)=O)C(c3ccc(-c4ccc(Cl)cc4)o3)C2)cc1 (stereo not drawn)  False
2  COc1cc2c(cc1F)C(c1ccccc1Cl)=Nc1c(n[nH]c1C)N2  False
3  Fc1ccc(/C=N/n2c(-c3ccc(F)c(Cl)c3)n[nH]c2=S)cc1  False
4  C[C@@H]1Cc2cc(O)ccc2[C@H]2CC[C@]3(C)/C(=C/COCCN(C)C)CC[C@H]3[C@H]12 (tested in a mixture with another compound)   True
5  FC(F)(F)c1cccc(-c2nn3ncccc3c2-c2ccnc(Nc3ccc4c(c3)OCCO4)n2)c1  False
6  Cc1ccc(C2C3Cc4ccccc4C3=NN2c2ccc(S(=O)(=O)/N=c3\scc(-c4ccccc4)n3-c3ccccc3)cc2)cc1 (stereo not drawn)  False

Task: # fetch the recorded call for `COc1cccc(Oc2ccccc2NC(=O)CNC(=O)c2cccc3ccccc23)c1` here
Output: False

Task: Answer briefly: the call reported for `CN1CCc2nc3sc(C(N)=O)c(N)c3c(-c3cccs3)c2C1` in this assay.
Output: False

Task: For this compound, state the assay outcome: `COc1cc(/C=C/c2ccc3c(Br)cc(Br)c(O)c3n2)ccc1O`
Output: False

Task: Check the results log: what was the call for CC1c2ccccc2CCN1c1ccc(CO)c(Cl)c1 (stereo not drawn) ?
Output: False

Task: How was `COc1cc(C(=O)c2cc(C)c3[nH]c4ccc(O)cc4c3c2C)cc(OC)c1OC` classified in this test?
Output: True

Task: Hello, I am checking results. What call was entered for `O=C(Nc1ccccc1OC(=O)c1ccccc1)c1ccccc1` ?
Output: False

Task: Record lookup: outcome of this test for `CC(C)C[C@H](NC(=O)CCn1ccc2ccccc2c1=O)B(O)O` ?
Output: False

* * *

# System: OVCAR-4 ovarian
# assayRemarks: NCI tumour cell line growth inhibition, 48 h
Recorded TGI, one value per entry.

// solved cases for TGI follow
compound	TGI
COc1cc2ncc3c(nc4sccn43)c2cc1OC	70.4 µM
O=c1[nH]c2nc3ccccc3c(=O)n2/c1=C/c1ccco1	> 100 µM
N#CC1(C#N)C(c2ccccc2)C=CC12OCCCO2 (stereo not given)	> 100 µM
CCCCCCCCCCCC[N+](CCCCCCCCCCCC)=C1SCCS1	11.3 µM

Task: Fill blank: measured TGI of the compound `CC(=O)O[C@@H]1C[C@@]2(C)[C@@H]3CC=C4[C@@H](C[C@H](O)C(=O)C4(C)C)[C@]3(C)C(=O)C[C@]2(C)[C@H]1[C@@](C)(O)C(=O)/C=C/C(C)(C)OC(C)=O` is ____.
Output: > 32.3 µM

Task: TGI for `COc1cc(O)c2c(=O)c(OC)c(-c3ccc(OC)c(OC)c3)oc2c1` ?
Output: > 100 µM

Task: Find the recorded TGI belonging to `Oc1cccc2c1NCCC2` and report it.
Output: > 100 µM

Task: Using the record for CC1=C(CC2C(=O)N(c3ccccc3)S(=O)(=O)NC2C)C(=O)N(c2ccccc2)S(=O)(=O)N1C (stereo not given) , report its TGI.
Output: > 100 µM

Task: Which measured TGI value corresponds to `CC(=O)O[C@H]1CC[C@@]2(C)C(=CC[C@@H]3[C@@H]2CC[C@]2(C)c4nc(Cl)ccc4C[C@@H]32)C1` ?
Output: > 100 µM

Task: Sample CC(C)(C)OC(=O)NCCCCC(N)NC(=O)c1ccccc1 (stereo not given) — what was its TGI?
Output: > 100 µM

Task: For the compound `Nc1nc(N)c(CCCCc2ccccc2)c(N)n1` , what TGI is on record?
Output: > 100 µM

Task: Any idea what its TGI is? The compound is CCc1ccc2c(c1)N(CC(C)CN(C)C)c1ccccc1S2 (stereo not given)
Output: 17 µM

Task: Look up TGI: `COc1ccc(Nc2ccc([N+](=O)[O-])cc2[N+](=O)[O-])cc1CN(CCCl)CCCl`
Output: > 100 µM
